# system_name: Torsin-1A-interacting protein 1 (Homo sapiens)
# experimental_protocol: LAP1 binders from COS7 cell lysate, primary screen, small-molecule microarray, 635/667 nm fluorescence (AID 1116)
# cond: COS7-hLAP1 lysate binding, 635 nm fluorescence, higher = more signal
reported_metric: composite z-score
Answer field: number only, no words.

(Q) Look at this molecule and give its reported composite z-score. C[C@H]1NC(=O)[C@@]23C(=O)N[C@@H](Cc4ccccc4)C2[C@H](C)[C@@]2(C)O[C@H]2C3/C=C/C/C=C\CNC(=O)[C@H](Cc2ccccc2)NC1=O (stereo not given in full)
(A) -0.285

(Q) Continue with O=C1NC(=O)C2C1C=CC(C(O)c1cccc3ccccc13)N2Nc1ccc(Cl)cc1Cl (stereo not given)
(A) 0.723

(Q) Continue with C[C@]1(C(=O)NC2CC2)c2ccccc2C(=O)N(Cc2ccccc2)[C@H]1c1ccc(CO)cc1
(A) -0.0199

(Q) Continue with COC(=O)[C@@]1(Cc2ccc(F)cc2)[C@H]2c3cc(C(=O)N4CCCC4)n(CCN4CNCC4=O)c3C[C@H]2CN1C(=O)c1ccccc1
(A) 2.1

(Q) Continue with O=C1O[C@@H](c2ccccc2)[C@@H](c2ccccc2)N2[C@@H](c3ccc(O)cc3)[C@]3(C(=O)Nc4ccc(C#CC5=CCCCC5)cc43)[C@@H](C(=O)NC[C@H](O)c3ccccc3)[C@H]12
(A) 1.52

(Q) Continue with COc1ccc(-c2cc3c(c(CCc4ccccc4)n2)[Si](C(C)C)(C(C)C)OC3)cn1
(A) -0.0389

(Q) Continue with C[N+](C)(C)CCCCCCNC(=O)[C@H]1C[C@H]2C(=O)NCC(=O)N2[C@H]1c1ccc(O)cc1
(A) -0.489

(Q) Continue with COc1ccc([Si](C)(C)[C@H]2[C@H](CCn3cc([C@H](O)c4ccccc4)nn3)O[C@@]3(C(=O)N(Cc4ccc(N5C(=O)c6cccc7cccc5c67)cc4)c4ccccc43)[C@@H]2C)cc1
(A) 0.112

(Q) Continue with CC(C)(C)N1CC=CC23O[C@@H]4C=CCOC(=O)[C@@H]4[C@H]2C(=O)N(CCCCCCO)[C@@H]3C1=O (stereo not given in full)
(A) -0.252

(Q) Continue with CCCCC=C[C@@H](NC(=O)c1ccc(-c2ccccc2)cc1)c1ccccc1
(A) 1.11

(Q) Continue with COC(=O)c1nc2oc1CC[C@@H](CO)NC(=O)N(C)Cc1cnnn1C[C@H](Cc1ccccc1)NC2=O
(A) 0.122

(Q) Continue with COC(=O)[C@H](Cc1ccccc1)N1CC(/C=C/C2CC2)=C[C@H]1[C@H](O)Cc1ccccc1
(A) 0.425

(Q) Continue with CCOC(=O)C1=CC[C@@H](c2cccc(Cl)c2)N(S(=O)(=O)c2ccc(C)cc2)C1
(A) 2.68

(Q) Continue with CN(C)CCCNC(=O)[C@@]1(c2ccc([N+](=O)[O-])cc2)CC(=O)N(CC23CC4CC(CC(C4)C2)C3)[C@@H]1c1ccc(CO)cc1I
(A) 1.27

(Q) Continue with NC(=O)NCC#Cc1ccc2c(c1)[C@]1(C(=O)N2)[C@H](C(=O)O)[C@H]2C(=O)O[C@H](c3ccccc3)[C@H](c3ccccc3)N2[C@@H]1c1ccc(OCCO)cc1
(A) 0.324

====

# system_name: NADPH oxidase 5 (Homo sapiens)
# experimental_protocol: NOX5-dependent H2O2 signal modulators, primary screen, NOX inhibitor project, cell-based, HEK293-NOX5, Amplex Red fluorescence (AID 1161)
# cond: HEK293-NOX5, ionomycin, 45 min, higher = more signal
reported_metric: z-score
Answer field: number only, no words.

Example results:
(Q) Look at this compound and give its reported z-score. COc1cc(OC)c(C(O)C2C=CC3C(=O)N(C)C(=O)C3N2NC(=O)OC(C)(C)C)cc1Br (centres undefined)
(A) 0.576

(Q) Continue with CN(C)C(=O)C1N=C(c2ccc(OCCCO)cc2)N(c2ccccc2)O1 (centres undefined)
(A) -1.12

(Q) Continue with Cn1cccc1C(O)C1C=CC2C(=O)NC(=O)C2N1Nc1ccc(Cl)cc1Cl (centres undefined)
(A) -2.71

(Q) Continue with CCOc1cc(C(O)C2C=CC3C(=O)N(c4ccccc4)C(=O)C3N2Nc2ccc(C#N)cc2)ccc1O (centres undefined)
(A) -4.31

New cases:
(Q) Look at this compound and give its reported z-score. C=CCC(OC(C)=O)[C@@H]1[C@@H](N(Cc2ccc(-c3ccccc3)cc2)C(=O)Cc2ccc(F)cc2)c2cc(OCCCO)ccc2N1C(=O)Cc1ccc(OC)cc1 (some centres undefined)
(A) 1.67

(Q) Continue with O=C1NC(=O)C2C1C=CC(C(O)CCc1ccccc1)N2Nc1ccc(Cl)cc1Cl (centres undefined)
(A) -0.709

(Q) Continue with C=CCOC(=O)[C@H]1[C@@H]2C(=O)O[C@@H](c3ccccc3)[C@@H](c3ccccc3)N2[C@@H](c2ccc(OCCOC(=O)[C@H]3C[C@H]4C(=O)N[C@@H](CCCCNC(C)=O)C(=O)N4[C@H]3c3ccc(O)cc3)cc2)[C@]12C(=O)Nc1ccccc12
(A) 1.04

(Q) Continue with COCCOC(=O)N1C(=O)[C@@]2(c3cc(C#CC4=CCCCC4)ccc31)[C@H](C(=O)N1CCCCCCC1)[C@H]1C(=O)O[C@H](c3ccccc3)[C@H](c3ccccc3)N1[C@@H]2c1ccc(O)cc1
(A) 0.871

(Q) Continue with COCCCNC(=O)[C@@]1(Cc2ccccc2N=[N+]=[N-])COC(c2ccc(OCCCO)cc2)=N1
(A) -0.146

(Q) Continue with O=C1O[C@@H](c2ccccc2)[C@@H](c2ccccc2)N2[C@@H](c3ccc(OCCO)cc3)[C@]3(C(=O)Nc4ccccc43)[C@@H](C(=O)O)[C@H]12
(A) -0.985

(Q) Continue with CCCCN1CC=CC23O[C@@H]4/C=C\CCC(C)OC(=O)C4[C@H]2C(=O)N(C(CO)C(C)C)[C@@H]3C1=O (some centres undefined)
(A) 2.14

(Q) Continue with COCCOC(=O)N1C(=O)[C@@]2(c3cc(C#Cc4ccc(OC)cc4)ccc31)[C@H](C(=O)Nc1nc3ccccc3s1)[C@H]1C(=O)O[C@H](c3ccccc3)[C@H](c3ccccc3)N1[C@@H]2c1ccc(OCCO)cc1
(A) 0.518

Data provenance: PubChem BioAssay
